Entry source: BigSolDB 2.1

# SETTINGS: in ethanol, 323.15 K
EXPERIMENTAL READOUT: solubility (mole fraction)
// print number alone

Data request: Look up solubility (mole fraction): CNc1nc(C)nc(OC)n1
Data returned: 0.136

----------
# SETTINGS: in DMF, 293.15 K
EXPERIMENTAL READOUT: solubility (mole fraction)
Just the number, please, no unit attached.

Data request: Please look up its solubility (mole fraction): CNc1nc(C)nc(OC)n1
Data returned: 0.269

----------
# SETTINGS: in ethanol, 283.15 K
EXPERIMENTAL READOUT: solubility (mole fraction)
Give your answer as a number; write no unit.

Data request: Consider the compound CNc1nc(C)nc(OC)n1 and give its measured solubility (mole fraction).
Data returned: 0.057

----------
# SETTINGS: in water, 323.15 K
EXPERIMENTAL READOUT: solubility (mole fraction)
Response field accepts a number only; no unit should be typed.

Data request: // lookup solubility (mole fraction) for CNc1nc(C)nc(OC)n1
Data returned: 8.49e-06

----------
# SETTINGS: in DMF, 298.15 K
EXPERIMENTAL READOUT: solubility (mole fraction)
Write the value as a bare number.

Data request: # solubility (mole fraction) lookup, item CNc1nc(C)nc(OC)n1
Data returned: 0.298

----------
# SETTINGS: in water, 293.15 K
EXPERIMENTAL READOUT: solubility (mole fraction)

Data request: Sample CNc1nc(C)nc(OC)n1 — what was its solubility (mole fraction)?
Data returned: 4.12e-06

----------
# SETTINGS: in ethanol, 313.15 K
EXPERIMENTAL READOUT: solubility (mole fraction)
Kindly provide the number alone.

Data request: Name the reported solubility (mole fraction) value associated with the compound CNc1nc(C)nc(OC)n1
Data returned: 0.111

----------
# SETTINGS: in ethylene glycol, 303.15 K
EXPERIMENTAL READOUT: solubility (mole fraction)
Keep it simple and answer with nothing but the number.

Data request: Entry CNc1nc(C)nc(OC)n1 has what solubility (mole fraction)?
Data returned: 0.039

----------
# SETTINGS: in methanol, 308.15 K
EXPERIMENTAL READOUT: solubility (mole fraction)

Data request: Which solubility (mole fraction) value belongs to CNc1nc(C)nc(OC)n1 ?
Data returned: 0.138

----------
# SETTINGS: in ethanol, 298.15 K
EXPERIMENTAL READOUT: solubility (mole fraction)
Answer with the value's number alone.

Data request: Recorded solubility (mole fraction) for CNc1nc(C)nc(OC)n1 , please?
Data returned: 0.0818

----------
# SETTINGS: in methanol, 313.15 K
EXPERIMENTAL READOUT: solubility (mole fraction)
Lab note: jot down the number only; don't add units.

Data request: Query (molecule): CNc1nc(C)nc(OC)n1 ; field requested: solubility (mole fraction)
Data returned: 0.152

----------
# SETTINGS: in ethanol, 303.15 K
EXPERIMENTAL READOUT: solubility (mole fraction)
Quick one: just the number, no unit, thanks!

Data request: Item CNc1nc(C)nc(OC)n1 has what recorded solubility (mole fraction)?
Data returned: 0.0914

----------
# SETTINGS: in ethylene glycol, 298.15 K
EXPERIMENTAL READOUT: solubility (mole fraction)
// response body must contain only the number

Data request: Param item = CNc1nc(C)nc(OC)n1 ; retrieve measured solubility (mole fraction).
Data returned: 0.0349

----------
# SETTINGS: in ethanol, 278.15 K
EXPERIMENTAL READOUT: solubility (mole fraction)

Data request: # get_value(readout='solubility (mole fraction)', item= CNc1nc(C)nc(OC)n1 )
Data returned: 0.0496

----------
# SETTINGS: in methanol, 298.15 K
EXPERIMENTAL READOUT: solubility (mole fraction)
// response body must contain only the number

Data request: Look at this molecule and give its reported solubility (mole fraction). CNc1nc(C)nc(OC)n1
Data returned: 0.11

----------
# SETTINGS: in water, 298.15 K
EXPERIMENTAL READOUT: solubility (mole fraction)

Data request: So what's the measured solubility (mole fraction) for this one? CNc1nc(C)nc(OC)n1
Data returned: 4.73e-06

----------
# SETTINGS: in water, 318.15 K
EXPERIMENTAL READOUT: solubility (mole fraction)
Keep it simple and answer with nothing but the number.

Data request: // lookup solubility (mole fraction) for CNc1nc(C)nc(OC)n1
Data returned: 7.57e-06

----------
# SETTINGS: in methanol, 288.15 K
EXPERIMENTAL READOUT: solubility (mole fraction)
Please reply with the value in numeric form only.

Data request: Give the measured solubility (mole fraction) of CNc1nc(C)nc(OC)n1 .
Data returned: 0.0874

----------
# SETTINGS: in DMF, 323.15 K
EXPERIMENTAL READOUT: solubility (mole fraction)
// return a plain number; no unit text

Data request: Return reported solubility (mole fraction); argument: CNc1nc(C)nc(OC)n1
Data returned: 0.456

----------
# SETTINGS: in ethylene glycol, 293.15 K
EXPERIMENTAL READOUT: solubility (mole fraction)
Write the number on its own, no unit after it.

Data request: Recorded solubility (mole fraction) of CNc1nc(C)nc(OC)n1 , please.
Data returned: 0.0309

----------
# SETTINGS: in water, 313.15 K
EXPERIMENTAL READOUT: solubility (mole fraction)
Lab note: jot down the number only; don't add units.

Data request: Given CNc1nc(C)nc(OC)n1 , state its recorded solubility (mole fraction).
Data returned: 6.71e-06

----------
# SETTINGS: in ethanol, 318.15 K
EXPERIMENTAL READOUT: solubility (mole fraction)
Field format: numeric only.

Data request: Any idea what solubility (mole fraction) was measured for CNc1nc(C)nc(OC)n1 ?
Data returned: 0.123

----------
# SETTINGS: in ethylene glycol, 283.15 K
EXPERIMENTAL READOUT: solubility (mole fraction)
# output: bare number, no unit

Data request: Quick one: solubility (mole fraction) of CNc1nc(C)nc(OC)n1 ?
Data returned: 0.0236

----------
# SETTINGS: in ethanol, 308.15 K
EXPERIMENTAL READOUT: solubility (mole fraction)
Give the value as a plain number.

Data request: Can you look up the measured solubility (mole fraction) of CNc1nc(C)nc(OC)n1 for me?
Data returned: 0.101
